Catalogue of compounds with associated IC50
target: Recombinant Human 5′-Nucleotidase (CD73) (Homo sapiens)
Construct: CHO derived CD73 (Trp27-Lys547), with a C-terminal 6-His tag; 6-His (C); purchased R&D 5795-EN; host or cells: CHO
Sequence (P21589 27-547): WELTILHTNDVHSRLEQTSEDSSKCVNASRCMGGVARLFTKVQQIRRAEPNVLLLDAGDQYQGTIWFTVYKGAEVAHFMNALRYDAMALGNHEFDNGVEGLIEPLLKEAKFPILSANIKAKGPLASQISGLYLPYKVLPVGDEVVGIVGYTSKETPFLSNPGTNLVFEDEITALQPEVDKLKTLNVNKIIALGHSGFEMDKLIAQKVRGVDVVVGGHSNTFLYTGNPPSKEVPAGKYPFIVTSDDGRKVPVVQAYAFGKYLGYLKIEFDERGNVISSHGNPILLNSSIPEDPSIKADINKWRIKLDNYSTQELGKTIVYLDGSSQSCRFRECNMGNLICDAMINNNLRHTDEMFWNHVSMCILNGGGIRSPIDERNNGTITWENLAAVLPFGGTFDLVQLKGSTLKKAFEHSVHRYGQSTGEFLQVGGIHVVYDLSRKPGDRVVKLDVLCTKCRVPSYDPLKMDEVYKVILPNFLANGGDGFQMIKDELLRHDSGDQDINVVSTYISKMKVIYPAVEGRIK
measurementDescription: CD73 Enzyme Assay
Format: biochemical
runConditions: human CD73 0.5 nM, AMP 30 μM, PiColorLock phosphate detection; read-out: Potency (IC50, CD73 enzyme assay)

Below: 7 compounds and their reported IC50.
>>> experimentalvalue("C=Cc1nc(NC2CCCC2)c2ncc([C@@H]3O[C@H](COP(=O)(O)CP(=O)(O)O)[C@@H](O)[C@H]3O)n2n1 [Compound 80]")
"10 to 99 nM"
>>> experimentalvalue("C[C@H](Nc1nc(Cl)nn2c([C@@H]3O[C@H](COP(=O)(O)CP(=O)(O)O)[C@@H](O)[C@H]3O)cnc12)c1ccc(Cl)c(Cl)c1 [Compound 53]")
"< 10 nM"
>>> experimentalvalue("O=P(O)(O)CP(=O)(O)OC[C@H]1O[C@@H](c2cnc3c(NCC4CCOC4)nc(Cl)nn23)[C@H](O)[C@@H]1O (some centres unmarked) [Compound 12]")
"< 10 nM"
>>> experimentalvalue("O=P(O)(O)CP(=O)(O)OC[C@H]1O[C@@H](c2cnc3c(NC4CCC(F)(F)C4)nc(Cl)nn23)[C@H](O)[C@@H]1O (some centres unmarked) [Compound 49]")
"< 10 nM"
>>> experimentalvalue("O=P(O)(O)CP(=O)(O)OC[C@H]1O[C@@H](c2coc3c(NCc4ccccc4)ncnc23)[C@H](O)[C@@H]1O [Compound 81]")
"10 to 99 nM"
>>> experimentalvalue("O=P(O)(O)CP(=O)(O)OC[C@H]1O[C@@H](c2cnc3c(N4CCC(F)(F)C4)nc(Cl)nn23)[C@@H](F)[C@@H]1O [Compound 75]")
"10 to 99 nM"
>>> experimentalvalue("O=P(O)(O)CP(=O)(O)OC[C@H]1O[C@@H](c2ccc3c(NCc4ccccc4)ncnn23)[C@H](O)[C@@H]1O [Compound 16]")
"10 to 99 nM"

Problem: Reported IC50, compound CN(c1nc(Cl)nn2c([C@@H]3O[C@H](COP(=O)(O)CP(=O)(O)O)[C@@H](O)[C@H]3O)cnc12)C1CCc2ccccc21 (some centres unmarked) [Compound 29] : ____
Result: < 10 nM
